These measurements were taken from PubChem BioAssay (NCATS).

# System: JEG-3
# assay overview: Primary qHTS to identify gynecologic anti-cancer compounds using libraries of approved drugs and bioactive compounds (AID 1345084); note: % is set by controls: 0 for no effect and ±100 for the full control effect; nearly all actives have a fitted effect of over 55% in size
# assay context: Gynecologic cancer cell panel viability, ATPlite luminescence, 48 h; series mostly up to 57.5 µM
Inconclusive results are not listed. Calls of active or inactive are those of the source. Calls come from the whole dose curve; as a rule, active = well fitted cell-killing curve with a large enough effect; inconclusive = small, poorly fitted or top-dose-only effect, or effect the other way; inactive = flat fitted curve, though single readings scatter.
endpoint: activity change, negative = cytotoxicity

molecule	tested target	assay result
CCC(C)/C=C(C)/C=C/C1=CC2=C(Cl)C(=O)C(C)(O)C(=O)C2(O)C(OC)O1 (stereo not drawn)	JEG-3	inactive
CC(=O)NC(C(=O)OC1CCC(C)(C)C2CC=C3C(=O)OCC3C12C)C(C)C (stereo not drawn)	JEG-3	inactive
C=C1CC[C@@]2(OC1)O[C@H]1CC3[C@@H]4CC=C5C[C@@H](O)C[C@@H](O[C@@H]6OC[C@H](O)[C@H](O)[C@H]6O[C@@H]6O[C@@H](C)[C@H](O)[C@@H](O)[C@H]6O)[C@]5(C)C4CC[C@]3(C)[C@H]1[C@@H]2C (stereo partly drawn)	JEG-3	inactive

* * *

# assay overview: Confirmatory screen NINDS Rhodamine qHTS for Zika virus inhibitors (AID 1347161); note: nearly all actives have a fitted effect of over 60% in size
# assay context: purified enzyme assay, Rhodamine110 substrate fluorescence, 15 min; series mostly up to 114 µM
Records with an inconclusive call do not appear. Active and inactive are the calls of the source. Calls come from the whole dose curve; as a rule, active = well fitted inhibition curve with a large enough effect; inconclusive = small, poorly fitted or top-dose-only effect; inactive = no such curve, though single readings can be large or run the other way. Where a SMILES comes first, the peptide text is derived from it. The star is where a group is joined. Hexanoyl = CCCCCC(=O)*
Hi there, use one of these labels in your reply, thanks! Y for active, N for inactive

Illustrative cases are given below, each with its answer.
compound	category
CC1(C)CC=C(c2cnc3ccccc3c2)c2cc(C(=O)Nc3ccc(C(=O)O)cc3)ccc21	Y
COc1cc2c(c(OC)c1O)C(c1ccc(O)cc1)C1C(=O)OC3C(COC(=O)C1=C2)OC(CO)(OC1OC(COC(=O)/C=C/c2ccc(OC4OC(C)C(O)C(O)C4O)cc2)C(O)C(O)C1O)C3O (stereo not given)	Y
O=C1NC(=O)/C(=C/c2cccc(C(F)(F)F)c2)S1	Y
Cc1ccc([C@@H]2CC=C(C(=O)O)[C@H](c3ccc(C(C)(C)C)cc3)N2S(=O)(=O)c2ccc(C)cc2)cc1	Y

# lookup: test call for CCCCCC(=O)N1CCC[C@H]1C(=O)N[C@@H](Cc1ccc(O)cc1)C(=O)OC (Hexanoyl-Pro-Tyr-OMe)
N

* * *

# System: HeLa
# assay overview: Primary qHTS to identify gynecologic anti-cancer compounds using libraries of approved drugs and bioactive compounds (AID 1345084); note: % is set by controls: 0 for no effect and ±100 for the full control effect; nearly all actives have a fitted effect of over 55% in size
# assay context: Gynecologic cancer cell panel viability, ATPlite luminescence, 48 h; series mostly up to 57.5 µM
Results filed as inconclusive are left out. Activity calls are given as the source filed them. Calls follow the shape of the dose curve; as a rule, active = well fitted cell-killing curve with a large enough effect; inconclusive = small, poorly fitted or top-dose-only effect, or effect the other way; inactive = flat fitted curve, though single readings scatter.
endpoint: activity change, negative = cytotoxicity

compound	tested target	assay result
C[C@H]1[C@H](C)CC[C@]2(C(=O)O)CC[C@]3(C)C(=CCC4[C@@]5(C)C[C@@H](O)[C@H](O)C(C)(C)C5CC[C@]43C)[C@H]12 (stereo not given in full)	HeLa	inactive
CC(C)=CCC[C@](C)(O[C@@H]1O[C@H](CO)[C@@H](O)[C@H](O)[C@H]1O)[C@H]1CC[C@]2(C)[C@@H]1[C@H](O)CC1[C@@]3(C)CC[C@H](O)C(C)(C)C3[C@@H](O[C@@H]3O[C@H](CO)[C@@H](O)[C@H](O)[C@H]3O[C@@H]3O[C@@H](C)[C@H](O)[C@@H](O)[C@H]3O)C[C@]12C (stereo not given in full)	HeLa	11.5% [at 11.6 µM] (inactive)
CN1CCN(c2nc(-c3ccc(C(=O)NC4(C(=O)NCC#N)CCCCC4)cc3)cs2)CC1	HeLa	inactive
CC(=O)OC1CC2(C)C(CCC(C)C23Cc2c(O)cc4c(c2O3)CNC4=O)C(C)(C)C1O (stereo not given)	HeLa	inactive

Field: next compound
Record request: activity change, negative = cytotoxicity value, item C[C@@H]1O[C@@H](O[C@H]2[C@H](O[C@H]3[C@H](O[C@H]4CC[C@@]5(C)C(CC[C@]6(C)C5CC=C5[C@@H]7CC(C)(C)CC(=O)[C@]7(C)CC[C@]56C)[C@@]4(C)CO)O[C@H](C(=O)O)[C@@H](O)[C@@H]3O)O[C@H](CO)[C@H](O)[C@@H]2O)[C@H](O)[C@H](O)[C@H]1O (stereo not given in full)
5.13% [at 11.6 µM] (inactive)
